assay: Mouse PK&BBB (pharmacokinetics and brain penetration); assay type: in vivo, CD-1 mice; settings: CD-1, whole blood, PO 20 mg/kg
value kind: AUC(0-inf) (ng·h/mL)
Report as a plain number; the unit ng·h/mL is understood.

Fill blank: measured AUC(0-inf) of the compound O=C(C1CCN(c2cc(-c3cc(OCCCO)ccc3F)ccn2)CC1)N1N=CC[C@H]1c1cc(F)cc(F)c1 (racemic) is ____.
869

====

assay: Rat PK&BBB (pharmacokinetics and brain penetration); type: in vivo, SD rats; details: SD, whole blood, PO 30 mg/kg
Measured Cmax, listed per entry.
Report as a plain number; the unit ng/mL is understood.

CC(C)(O)COc1ccc(F)c(-c2ccnc(N3CCC(C(=O)N4N=CC[C@H]4c4cc(F)cc(F)c4)CC3)c2)c1 (racemic)
1580
O=C(C1CCN(c2cc(-c3cc(OCCCO)ccc3F)ccn2)CC1)N1N=CCC1c1cc(F)cc(F)c1 (racemic)
309

Fill blank: measured Cmax of the molecule O=C(C1CCN(c2cc(-c3cc(OCCCO)ccc3F)ccn2)CC1)N1N=CC[C@H]1c1cc(F)cc(F)c1 (racemic) is ____.
581

====

test: Mouse PK&BBB (pharmacokinetics and brain penetration); type: in vivo, CD-1 mice; conditions: CD-1, mouse, whole blood, iv, 2 mg/kg, IV 2 mg/kg, 4 hr, read-out: Blood drug concentration
value kind: concentration at 4 h (ng/mL)
Report as a plain number; the unit ng/mL is understood.

Fill blank: measured concentration at 4 h of the molecule O=C(C1CCN(c2cc(-c3cc(OCCCO)ccc3F)ccn2)CC1)N1N=CC[C@H]1c1cc(F)cc(F)c1 (racemic) is ____.
1.77

====

Measured half-life, listed per entry.
assay: Beagle PK (pharmacokinetics); type: in vivo, beagle dogs; conditions: whole blood; Beagle dog, PO 3 mg/kg
Report as a plain number; the unit h is understood.

O=C(C1CCN(c2cc(-c3cc(OCCCO)ccc3F)ccn2)CC1)N1N=CCC1c1cc(F)cc(F)c1 (racemic) [Example 18]
4.55

Next, consider the following compound.
Fill blank: measured half-life of the compound CC(C)(O)COc1ccc(F)c(-c2ccnc(N3CCC(C(=O)N4N=CC[C@H]4c4cc(F)cc(F)c4)CC3)c2)c1 (racemic) [Example 42] is ____.
18.1

====

assay: Mouse PK&BBB (pharmacokinetics and brain penetration); assay type: in vivo, CD-1 mice; conditions: CD-1, whole blood, IV 2 mg/kg
value kind: AUC(0-t) (ng·h/mL)
Report as a plain number; the unit ng·h/mL is understood.

Fill blank: measured AUC(0-t) of the compound O=C(C1CCN(c2cc(-c3cc(OCCCO)ccc3F)ccn2)CC1)N1N=CC[C@H]1c1cc(F)cc(F)c1 (racemic) [Example 40] is ____.
307

====

assay: Mouse PK&BBB (pharmacokinetics and brain penetration); type: in vivo, CD-1 mice; details: CD-1, mouse, whole blood, po, 20 mg/kg, PO 20 mg/kg, 0 hr, read-out: Blood drug concentration
value kind: concentration at 0 h (ng/mL)
Report as a plain number; the unit ng/mL is understood.

Fill blank: measured concentration at 0 h of the compound O=C(C1CCN(c2cc(-c3cc(OCCCO)ccc3F)ccn2)CC1)N1N=CC[C@H]1c1cc(F)cc(F)c1 (racemic) is ____.
0

====

Measured concentration at 0 hr, listed per entry.
test: Beagle PK (pharmacokinetics); assay type: in vivo, beagle dogs; details: whole blood; Beagle dog, PO 3 mg/kg, 0 hr; read-out: Blood drug concentration
Report as a plain number; the unit ng/mL is understood.

CC(C)(O)COc1ccc(F)c(-c2ccnc(N3CCC(C(=O)N4N=CC[C@H]4c4cc(F)cc(F)c4)CC3)c2)c1 (racemic) [Example 42]
0

Next, consider the following compound.
Fill blank: measured concentration at 0 hr of the compound O=C(C1CCN(c2cc(-c3cc(OCCCO)ccc3F)ccn2)CC1)N1N=CCC1c1cc(F)cc(F)c1 (racemic) [Example 18] is ____.
0

====

experiment: Beagle PK (pharmacokinetics); type: in vivo, beagle dogs; settings: whole blood; Beagle dog, PO 3 mg/kg
Measured AUC(0-t), listed per entry.
Form field: result (number plus unit)

CC(C)(O)COc1ccc(F)c(-c2ccnc(N3CCC(C(=O)N4N=CC[C@H]4c4cc(F)cc(F)c4)CC3)c2)c1 (racemic)
11200 ng·h/mL

Fill blank: measured AUC(0-t) of the compound O=C(C1CCN(c2cc(-c3cc(OCCCO)ccc3F)ccn2)CC1)N1N=CCC1c1cc(F)cc(F)c1 (racemic) is ____.
4210 ng·h/mL

====

tested on: L929 cells; assay: Inhibition of cell necrosis (CCK8 method), L929 cells; format: cell-based, mouse; conditions: Mus musculus, L929, L929, Murine TNF-α/Z-VAD-FMK, 4-8 hours, CCK8
pIC50: −log10 of the molar value.
value kind: pIC50

Example results:
COCCCOc1cccc(-c2ccnc(N3CCC(C(=O)N4N=CCC4c4cc(F)cc(F)c4)CC3)c2)c1 (centres unmarked) [Example 2]
7.00 to 7.30
Cc1ccc(OC2CCOCC2)cc1-c1ccnc(N2CCC(C(=O)N3N=CCC3c3cc(F)cc(F)c3)CC2)c1 (centres unmarked) [Example 6]
7.00 to 7.30
O=C(C1CCN(c2cc(-c3cc(OCCCF)ccc3F)ccn2)CC1)N1N=CCC1c1cc(F)cc(F)c1 (centres unmarked) [Example 27]
7.00 to 7.30
O=C(C1CCN(c2cc(-c3cccc(OCCCO)c3)ccn2)CC1)N1N=CCC1c1cc(F)cc(F)c1 (centres unmarked) [Example 12]
7.00 to 7.30
CC(C)(O)CCCOc1ccc(F)c(-c2ccnc(N3CCC(C(=O)N4N=CCC4c4cc(F)cc(F)c4)CC3)c2)c1 (racemic) [Example 24]
7.30 to 8.00

Under L929 cells: pIC50 value of CC(C)(O)CCCOc1cccc(-c2ccnc(N3CCC(C(=O)N4N=CCC4c4cc(F)cc(F)c4)CC3)c2)c1 (centres unmarked) [Example 8] ?
7.30 to 8.00

And CCC(O)(CC)COc1ccc(F)c(-c2ccnc(N3CCC(C(=O)N4N=CCC4c4cc(F)cc(F)c4)CC3)c2)c1 (centres unmarked) [Example 44] ?
7.30 to 8.00

And O=C(C1CCN(c2cc(-c3cc(OCC(F)(F)CO)ccc3F)ccn2)CC1)N1N=CCC1c1cc(F)cc(F)c1 (centres unmarked) [Example 37] ?
7.30 to 8.00

Reference for the values: patent US20250074892A1
